Data provenance is PubChem BioAssay (NCI).

test system: UO-31 renal; experiment: NCI tumour cell line growth inhibition, 48 h
MEASURE_NAME: TGI (µM)
Lab book: enter the figure in µM, no units written.

Task item: Would you please give the reported TGI of "COc1ccccc1C(=O)c1ccc2ccccc2c1" with UO-31 renal?
Reply: 64.7

Task item: Would you please give the reported TGI of "NC(N)=N/N=C/c1c(-c2ccccn2)nc2sc(Cl)cn12" with UO-31 renal?
Reply: 14.8

Task item: Would you please give the reported TGI of "Cc1cccc(NC(Nc2cccc(C)c2)=C(C(Cl)=C(Cl)Cl)[N+](=O)[O-])c1" with UO-31 renal?
Reply: 26.4

Task item: Would you please give the reported TGI of "COC(=O)/C=C\S/C(=C(/c1ccccc1)n1ccc(C(=O)OC)n1)c1ccccc1" with UO-31 renal?
Reply: 38.7

###

system: HCT-116 colon; test: NCI tumour cell line growth inhibition, 48 h; in the data active means GI50 below about 0.43 µM; inactive means the rest
I would appreciate it if you answered using one of these outcomes: 1 = active, 0 = inactive

Task item: Can you look up the reported call for FC(F)(F)c1ccc2c(Nc3cccc(C4CC(c5ccccc5)=NN4c4ccc(Cl)cc4)c3)ccnc2c1 (configuration not stated) for me?
Reply: 0

Task item: Can you look up the reported call for "COc1cc(-c2cn(C)c(=O)c(C)c2C)cc(OC)c1CN1CC[C@H](N2CCN(c3ccc(N[C@H]4CCC(=O)NC4=O)cc3F)CC2)C(F)(F)C1" for me?
Reply: 0

Task item: Can you look up the reported call for "CNc1nc(NC2CCCC2)nc(Sc2ccc(OC)cc2)n1" for me?
Reply: 0

Task item: Can you look up the reported call for "CCOC(=O)[C@@H](C)C[C@H](Cc1ccccc1)NC(=O)c1csc([C@@H](C[C@H](C(C)C)N(C)C(=O)[C@@H](NC(=O)[C@H]2CCCCN2C)C(C)(C)C)OC(C)=O)n1" for me?
Reply: 1

Task item: Can you look up the reported call for "O=C(Nc1cc(-c2ccccc2)[nH]n1)c1ccc(Cl)cc1" for me?
Reply: 0

Task item: Can you look up the reported call for "COc1cc2c3c(n(C)c(=O)c2cc1OC)-c1cc2c(cc1/C3=C/CCCCBr)OCO2" for me?
Reply: 0

Task item: Can you look up the reported call for "O=P(O)(O)C(O)(Cn1ccnc1)P(=O)(O)O" for me?
Reply: 0

###

test system: U251 CNS; test: NCI tumour cell line growth inhibition, 48 h
Kindly supply the reported TGI values for the records listed here.

Task item: Give me measured TGI, please, for this compound: COC(=O)c1sc2ncc3c(c2c1N)CC(C)CC3 (stereo not given)
Reply: > 100 µM

Task item: Give me measured TGI, please, for this compound: "c1ccc([P+](Cc2csnn2)(c2ccccc2)c2ccccc2)cc1"
Reply: > 100 µM

Task item: Give me measured TGI, please, for this compound: "COc1ccc(/C=N/Nc2nc3ccccc3c(=O)n2-c2ccccc2)c(OCc2ccccc2)c1"
Reply: > 100 µM

Task item: Give me measured TGI, please, for this compound: "COc1ccc(CN2C(=O)C(=O)N(C)C2=O)c2ccccc12"
Reply: > 10 µM

Task item: Give me measured TGI, please, for this compound: CC1=Nc2c(ccc3c2C(=O)c2ccccc2C3=O)NC(c2ccncc2)C1 (stereo not given)
Reply: > 100 µM

Task item: Give me measured TGI, please, for this compound: "COc1cc(/C=C/c2cc(=O)cc(/C=C/c3ccc(O)c(OC)c3)o2)ccc1O"
Reply: > 100 µM

Task item: Give me measured TGI, please, for this compound: "COc1ccc(-c2cc(-c3cc(Cl)ccc3Cl)nc3nc(=S)[nH]c(N)c23)cc1"
Reply: 72.1 µM

Task item: Give me measured TGI, please, for this compound: COP(=O)(CC(=O)C1OC(OCc2ccccc2)C(OCc2ccccc2)C(OCc2ccccc2)C1OCc1ccccc1)OC (stereo not given)
Reply: > 100 µM

Task item: Give me measured TGI, please, for this compound: CC12CCC(C/C1=N\NC(N)=O)C2(C)C (stereo not given)
Reply: > 100 µM

Task item: Give me measured TGI, please, for this compound: "CC1=C(C(=O)NNC(=O)CC#N)CC(C(=O)NNC(=O)CC#N)=C(C)N1"
Reply: > 100 µM

###

system: NCI-H23 lung; assay: NCI tumour cell line growth inhibition, 48 h
Kindly supply the reported GI50 values for the records listed here.

Task item: Would you please give the reported GI50 of "COC(=O)c1c(O)ccc2[nH]c(C)c(C#N)c12" with NCI-H23 lung?
Reply: 77.1 µM

Task item: Would you please give the reported GI50 of COC(=O)C(Cc1ccccc1)N/C=C\C(=O)c1ccc(Cl)cc1 (stereo not given) with NCI-H23 lung?
Reply: 18.3 µM

Task item: Would you please give the reported GI50 of "CCN(Cc1c(F)cccc1F)c1ccc(CO)c(Cl)c1" with NCI-H23 lung?
Reply: 15 µM

Task item: Would you please give the reported GI50 of "CCCCCC(=O)Oc1ccc(/C(=C(\C)c2ccc(OC)cc2)c2ccc(OCCN3CCCCC3)cc2)cc1" with NCI-H23 lung?
Reply: 10.1 µM

Task item: Would you please give the reported GI50 of COc1cc(/C=C2\CC3C4CC=C5CC(N6CCCC6)CC[C@]5(C)C4CC[C@]3(C)C2OC(C)=O)ccc1OCCN1CCCC1 (stereo not given in full) with NCI-H23 lung?
Reply: 14.2 µM

Task item: Would you please give the reported GI50 of "O=C1c2ccccc2-c2c1c1ccccc1c(=O)n2CCNCCCNCCn1c2c(c3ccccc3c1=O)C(=O)c1ccccc1-2" with NCI-H23 lung?
Reply: 0.249 µM

Task item: Would you please give the reported GI50 of "O=C1c2c(c3c4ccc(Br)cc4oc3c3[nH]c4ccccc4c23)C(=O)N1O" with NCI-H23 lung?
Reply: 1.75 µM

Task item: Would you please give the reported GI50 of COc1ccc2c(c1)C=CC(C#N)N2C(=O)c1ccccc1 (stereo not given) with NCI-H23 lung?
Reply: < 0.01 µM

Task item: Would you please give the reported GI50 of "Cc1c(C(=O)NN)nnn1-c1ccnc2c(C(F)(F)F)cccc12" with NCI-H23 lung?
Reply: > 100 µM

Task item: Would you please give the reported GI50 of "Cc1ncc(NC(=O)c2ccc(CN3CCN(C)CC3)c(C(F)(F)F)c2)cc1Nc1nccc(-c2cccnc2)n1" with NCI-H23 lung?
Reply: 14.2 µM

Task item: Would you please give the reported GI50 of "CC1=C(C)C(=O)O[C@@H]([C@](C)(O)[C@]2(O)CC[C@@]3(O)[C@@H]4C[C@H]5O[C@]56CC=CC(=O)[C@]6(C)[C@H]4CC[C@]23C)C1" with NCI-H23 lung?
Reply: 0.254 µM

Task item: Would you please give the reported GI50 of "CN1CCN(Cc2ccc(NC(=O)c3ccc(C(C)(C)C)c(C#Cc4cnc5cccnn45)c3)cc2C(F)(F)F)CC1" with NCI-H23 lung?
Reply: 1.85 µM

Task item: Would you please give the reported GI50 of "C=C1CC(COc2cc(Cl)nc(N)n2)C1" with NCI-H23 lung?
Reply: 38.6 µM

Task item: Would you please give the reported GI50 of "COc1cc2c3c(n(CCCN4CCC(N)CC4)c(=O)c2cc1OC)-c1cc2c(cc1C3=O)OCO2" with NCI-H23 lung?
Reply: 0.475 µM

Task item: Would you please give the reported GI50 of CC(=O)n1c(-c2ccc(Cl)cc2)nc2c(c1=O)C(c1ccc(Cl)cc1)c1sc3c(Cl)cccc3c1O2 (stereo not given) with NCI-H23 lung?
Reply: 0.513 µM

###

Kindly supply the reported GI50 values for the records listed here.
system: EKVX NSCLC; test: NCI tumour cell line growth inhibition, 48 h

Task item: Would you please give the reported GI50 of FC(F)(F)c1ccc2c(Nc3cccc(C4CC(c5ccccc5)=NN4c4ccc(Cl)cc4)c3)ccnc2c1 (centres undefined) with EKVX NSCLC?
Reply: 10.9 µM

Task item: Would you please give the reported GI50 of "CCCCCC(=O)Oc1ccc(/C(=C(\C)c2ccc(OC)cc2)c2ccc(OCCN3CCCCC3)cc2)cc1" with EKVX NSCLC?
Reply: 9.92 µM

Task item: Would you please give the reported GI50 of "Cc1noc(C)c1-c1ccc2[nH]c(=O)n3c2c1OC[C@@H]3c1ccccn1" with EKVX NSCLC?
Reply: 2.39 µM

Task item: Would you please give the reported GI50 of "CN1CCN(Cc2ccc(NC(=O)c3ccc(C(C)(C)C)c(C#Cc4cnc5cccnn45)c3)cc2C(F)(F)F)CC1" with EKVX NSCLC?
Reply: 5.8 µM

Task item: Would you please give the reported GI50 of "CNC(=O)c1cc(Oc2ccc(NC(=O)Nc3ccc(Cl)c(OC(F)(F)F)c3)c(F)c2)ccn1" with EKVX NSCLC?
Reply: 1.55 µM

Task item: Would you please give the reported GI50 of "CN(C)CCNC(=O)Nc1c(C#N)[n+]([O-])c2cc(Cl)c(Cl)cc2[n+]1[O-]" with EKVX NSCLC?
Reply: 36.8 µM

Task item: Would you please give the reported GI50 of "COc1cc2c3c(n(CCCN4CCC(N)CC4)c(=O)c2cc1OC)-c1cc2c(cc1C3=O)OCO2" with EKVX NSCLC?
Reply: 1.31 µM

Task item: Would you please give the reported GI50 of COc1ccc(C2C(C#N)=C(N)OC3=C2CCCc2ccc(F)cc23)cc1OC (centres undefined) with EKVX NSCLC?
Reply: 10.1 µM

Task item: Would you please give the reported GI50 of "CCn1c(-c2nonc2N)nc2ccc(F)cc21" with EKVX NSCLC?
Reply: > 22.2 µM
